Target: T1, human blood protein factor XII (FXII) (human, UniProt P00748 20-615)
T1 construct: mature; Single-chain zymogen as it circulates in plasma; also called human FXII; plasma-derived FXII
T1 sequence (looked up): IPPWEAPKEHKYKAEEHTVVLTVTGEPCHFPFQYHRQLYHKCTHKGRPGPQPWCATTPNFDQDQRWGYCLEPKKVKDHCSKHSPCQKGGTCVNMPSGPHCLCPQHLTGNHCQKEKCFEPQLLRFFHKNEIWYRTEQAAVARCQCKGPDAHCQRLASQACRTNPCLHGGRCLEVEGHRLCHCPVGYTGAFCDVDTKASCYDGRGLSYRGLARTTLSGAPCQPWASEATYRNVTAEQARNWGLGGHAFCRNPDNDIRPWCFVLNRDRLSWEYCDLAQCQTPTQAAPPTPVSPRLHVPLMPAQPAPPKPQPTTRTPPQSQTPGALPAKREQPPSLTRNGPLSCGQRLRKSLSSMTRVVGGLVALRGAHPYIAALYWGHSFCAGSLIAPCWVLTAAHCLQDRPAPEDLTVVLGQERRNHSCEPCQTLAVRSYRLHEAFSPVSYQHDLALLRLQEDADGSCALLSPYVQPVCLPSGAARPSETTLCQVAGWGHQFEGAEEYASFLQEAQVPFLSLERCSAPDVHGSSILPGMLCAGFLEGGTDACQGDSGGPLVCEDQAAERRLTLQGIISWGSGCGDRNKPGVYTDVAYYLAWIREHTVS
Assay: BLI (Octet RED96), antibody on anti-human Fc biosensors, antigen in solution, 1:1 fit
Method: Multi-concentration kinetic experiments were performed on the Octet RED96 system (ForteBio). Anti-human Fc biosensors (ForteBio) were hydrated in sample diluent (0.1% BSA in PBS and 0.02% Tween 20) and preconditioned in pH 1.9 Glycine. Antigen was diluted by a 7-point, 3-fold serial dilution starting at 200 nM with sample diluent. Antibodies were diluted to 1μg/ml with sample diluent and then immobilized onto anti-human Fc biosensors. […]
Reported kon values are given for each entry in this list.
metric: kon (M⁻¹ s⁻¹)

INSERT INTO assay_data (binder, metric, value_observed) VALUES
  ('humanized 5C12 antibody HC1 + LC1 (PP13893) (antibody, human IgG4 S228P, kappa, V domains shown, Human IgG4 (S241P hinge modified), expressed in HEK293; also called AB054; h5C12) VH: QVQLQESGPGLVKPSQTLSLTCTVSGYSITSGYSWHWIRQHPGKGLEWIGYIQYSGNTNSNPSLKSRVTISRDTSKNQFSLKLSSVTAADTAVYYCARWGSFDYWGQGTLVTVSS VL: EIVLTQSPATLSLSPGERATLSCRASSSVNYLHWYQQKPGQAPRRLIYDTSKLATGIPARFSGSGSGTDYTLTISSLEPEDFAVYYCQQWSGNPPTFGGGTKVEIKR', 'kon', 530000),
  ('humanized 5C12 antibody HC3 + LC3 (PP13901) (antibody, human IgG4 S228P, kappa, V domains shown, Human IgG4 (S241P hinge modified), expressed in HEK293; also called H7882 + L7882) VH: DVQLQESGPGLVKPSETLSLTCTVSGYSITSGYSWHWIRQPPGKGLEWIGYIQYSGNTNSNPSLKSRVTISRDTSKNQFSLRLSSVTAADTAVYYCARWGSFDYWGQGTMVTVSS VL: DIVLTQTPATLSLSPGERATLSCRASSSVNYLHWYQQKPGQAPKRLIYDTSKLATGIPARFSGSGSGTDYTLTISSLEPEDFAVYYCQQWSGNPPTFGQGTRLEIKR', 'kon', 530000),
  ('Chimera (chimeric parental antibody) PP13892 (antibody, human IgG4, V domains shown, Variable regions of murine AB053 on the same human IgG4 (S241P hinge modified) backbone as the humanized antibodies; also called H7879 + L7879) VH: DVQLQESGPDLVKPSQSLSLTCTVTGYSITSGYSWHWIRQFPGNNLEWMGYIQYSGNTNSNPSLKSRISITRDTSKNQFFLHLNSVTTEDTATYYCARWGSFDYWGQGTTLTVSS VL: QIVLTQSPAIMSASPGEKVTMTCSASSSVNYMHWYQQKSGTSPKRWIYDTSKLASGVPARFSGSGSGTSYSLTISSMEAGDAATYYCQQWSGNPPTFGGGTILEIK', 'kon', 460000),
  ('humanized 5C12 antibody HC2 + LC1 (PP13896) (antibody, human IgG4 S228P, kappa, V domains shown, Human IgG4 (S241P hinge modified), expressed in HEK293; also called H7881 + L7880) VH: DVQLQESGPGLVKPSQTLSLTCTVTGYSITSGYSWHWIRQHPGKGLEWMGYIQYSGNTNSNPSLKSRVTISRDTSKNQFSLKLSSVTAADTAVYYCARWGSFDYWGQGTLVTVSS VL: EIVLTQSPATLSLSPGERATLSCRASSSVNYLHWYQQKPGQAPRRLIYDTSKLATGIPARFSGSGSGTDYTLTISSLEPEDFAVYYCQQWSGNPPTFGGGTKVEIKR', 'kon', 500000),
  ('humanized 5C12 antibody HC1 + LC2 (PP13894) (antibody, human IgG4 S228P, kappa, V domains shown, Human IgG4 (S241P hinge modified), expressed in HEK293; also called H7880 + L7881) VH: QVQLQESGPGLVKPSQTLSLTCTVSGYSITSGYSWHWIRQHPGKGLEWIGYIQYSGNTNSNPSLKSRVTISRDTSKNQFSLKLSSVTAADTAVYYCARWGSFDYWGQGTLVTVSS VL: EIVLTQSPATLSLSPGERATLSCRASSSVNYLHWYQQKPGQAPKRWIYDTSKLATGIPARFSGSGSGTDYTLTISSLEPEDFAVYYCQQWSGNPPTFGGGTKVEIKR', 'kon', 530000);
